Molecular target: T1, recombinant human PD-L2-Fc-biotin (human, UniProt Q9BQ51 20-220, biotin)
T1 chain: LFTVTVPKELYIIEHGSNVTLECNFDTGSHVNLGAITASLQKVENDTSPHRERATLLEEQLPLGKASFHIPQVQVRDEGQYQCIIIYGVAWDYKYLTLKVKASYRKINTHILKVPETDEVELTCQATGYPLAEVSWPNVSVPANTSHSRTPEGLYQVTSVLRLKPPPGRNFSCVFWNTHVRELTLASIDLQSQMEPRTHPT
Experiment: blocking of hPD-L2 binding to HEK293-hPD-1 cells
observationType: pIC50
// pIC50 is dimensionless: -log10 of concentration (M)

Example results:
binder="2C4-E4 (antibody, V domains shown, Both formats under this entry) VH: QVQLVQSGAEVKKPGASVKVSCKASGYTFTGYVMHWVRQAPGQRLEWMGWINADNGITKYSQKFQGRVTITRDTSASTAYMELTNLRSEDTAVYYCARATRGFGEFYFDYWGQGNLVTVSS VL: DIQMTQSPSTLSASVGDRVTITCRASQTISSWLAWYQQKPGKAPNLLIYKASSLESGVPSRFSGSGSGTEFTLTISSLQPDDFATYYCQQYYSYWTFGQGTKVEIK" testresult=10.70
binder="19C3-B3 (antibody, V domains shown, Both formats under this entry; also called 19C3-C3) VH: QVQLVESGGGVVQPGRSLRLSCAASGFAFSAYGMHWVRQAPGKGLEWVAISWYDGSNNYHADSVKGRFTISRDSSKNTLYLQMNSLRAEDTAVYYCAKSIGVARHYYYGMDVWGQGTTVTVSS VL: SYELTQPPSVSVSPGQTASITCSGEELGDKYACWYQQKPGQSPLLVIYQDSKRPSGIPERFSGSNSGNAATLTISGTQAMDEADYYCQAWDSITVIFGGGTKLTVLG" testresult=10.89

Kindly review the next binder as well.
For record 19B3-B3 (antibody, V domains shown, Both formats under this entry) VH: QVQLVQSGAEVKKPGASVKVSCMASGYTFTNYAIHWVRQAPGQRLEWMGWINTGLGKPKYSQMFQDRVTITRDTSASTASMELSGLRSDDTAVYYCARVGWELYFDYWGQGTLVTVSS VL: DIQMTQSPSTLSASVGDRVTITCRASQSISSLLAWYQQKPGKAPKLLIYKASSLESGVPSRFSGSGSGTEFTLTISSLQPDDFATYFCQQYNSYWTFGQGTKVEIK the listed pIC50 is 10.77
